Molecular target: Left-right determination factor 2 (Homo sapiens) (UniProt O00292)
Sequence (O00292 whole entry, looked up): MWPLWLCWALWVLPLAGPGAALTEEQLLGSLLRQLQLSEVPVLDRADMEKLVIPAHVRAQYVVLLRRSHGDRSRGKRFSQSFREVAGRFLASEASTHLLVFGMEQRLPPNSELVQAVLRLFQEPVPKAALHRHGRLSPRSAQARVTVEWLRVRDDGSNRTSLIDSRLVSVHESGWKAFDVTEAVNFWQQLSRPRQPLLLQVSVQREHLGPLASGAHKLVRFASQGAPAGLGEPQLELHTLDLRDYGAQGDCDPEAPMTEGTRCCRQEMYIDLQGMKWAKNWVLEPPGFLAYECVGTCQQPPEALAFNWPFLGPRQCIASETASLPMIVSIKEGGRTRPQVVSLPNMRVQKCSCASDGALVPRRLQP
Assay: LEFTY2 binders on small-molecule microarrays, primary screen, biochemical, small-molecule microarray, 635 nm fluorescence scan (AID 1110)
Details: LEFTY2 binding, higher = more signal
Measured quantity: composite z-score

CO[C@@H]1COC(=O)CCC[C@@H](C)[C@H](OC)COC(=O)CCC[C@H]1C : 0.862
O=C1O[C@@H](c2ccccc2)[C@@H](c2ccccc2)N2[C@@H](c3ccc(OCCO)cc3)[C@]3(C(=O)Nc4ccc(C#CCCO)cc43)[C@@H](C(=O)N3CCCCCCC3)[C@H]12 : 1.07
CCOC(=O)CCN1C(=O)[C@H]2[C@H]3[C@H](O)[C@H](O)CC(=NOCc4ccccc4)[C@@H]3CC[C@H]2C1=O : 0.591
COC(=O)[C@H]1COC(c2ccc(OCCCO)cc2)=N1 : -0.365
CC(=O)OC[C@H]1O[C@H](C#CCCCc2ccccc2)C=C[C@@H]1OC(C)=O : 0.615
COc1ccc(O[C@H]2C=C[C@@H](c3ccccc3)O[C@@H]2COC(=O)N2CCCCC2)cc1 : -0.0284
O=C1[C@H]2[C@H]3[C@H](O)[C@H](O)CC(=NOCc4ccccc4)[C@@H]3CC[C@H]2C(=O)N1Cc1ccccc1 : 0.509
CCCCCN1CC=CC23O[C@@H]4C=CCOC(=O)[C@@H]4[C@H]2C(=O)N(CCCCCCO)[C@@H]3C1=O (stereo not given in full) : -2
CC(C)=C1C(=O)C(c2ccccc2)=C2CN3C(=O)N(CCc4ccccc4)C(=O)[C@]3(Cc3ccc(F)cc3)[C@H]21 : -1.67
CCCNC(=O)OC[C@H]1O[C@H](CCON=CC[C@@H]2C=C[C@H](OC(C)=O)[C@@H](COC(C)=O)O2)C=C[C@@H]1Oc1ccc(OC)cc1 : 0.667
COc1ccc(OC[C@H]2Cc3c(-c4ccccc4)nc4c(c3CO2)CN(CCOc2ccccc2)CC4)cc1 : 0.722
CC(CCN1CCCCc2nc(C)c(C)cc21)=NOC(C)CN1CCCCc2nc(C)c(C)cc21 (stereo not given) : 1.45
NC(=O)NCC#Cc1ccc2c(c1)[C@]1(C(=O)N2)[C@H](c2ccc(O)cc2)N2[C@H](c3ccccc3)[C@H](c3ccccc3)OC(=O)[C@H]2[C@@H]1C(=O)N1CCCCCCC1 : 0.258
CCOC(=O)C1=CC[C@H]2C(=O)N(CC)C(=O)[C@@H]12 : 0.444
CC(=O)OC[C@H]1O[C@H](CCON=C(C)CCN2CCc3nc(-c4ccccc4)c(-c4ccccc4)cc3C2)C=C[C@@H]1OC(C)=O : 0.0439
CCOC(=O)[C@H](Cc1ccccc1)NC(=O)CCC1CC(OC(=O)NCc2ccc3c(c2)OCO3)CC2(CCCC(COC(=O)NCC3CCCCC3)O2)O1 (stereo not given in full) : 0.617
O=C1O[C@@H](c2ccccc2)[C@@H](c2ccccc2)N2[C@@H](c3ccc(O)cc3)[C@]3(C(=O)Nc4ccccc43)[C@@H](C(=O)O)[C@H]12 : -0.6
CC(C)CON=C1[C@H]2CCn3c(=O)n(-c4ccccc4)c(=O)n3[C@H]2[C@H](O)[C@@H]2O[C@H]12 : 0.598
COC(=O)CC=C[C@@H](C)[C@@H](C=NO[C@H](C)c1cn([C@@H]2COC[C@H]2O)nn1)OC : 0.589
CC(C)=NOCc1ccc(-c2cc(-c3ccccc3)no2)cc1 : 0.384
COc1ccc(COC(=O)NN=C2C[C@@H](O)[C@@H](O)[C@@H]3[C@@H]4C(=O)N(Cc5ccc6c(c5)OCO6)C(=O)[C@@H]4CC[C@@H]23)cc1 : -0.218
O=C1C2C=CC(C(O)c3ccc([N+](=O)[O-])cc3)N(Nc3ccc([N+](=O)[O-])cc3)C2C(=O)N1c1ccccc1 (stereo not given) : 0.179
C[C@@H]1C=CCC(=O)OC[C@H](C)C(=O)OC[C@H]2O[C@H]1C=C[C@H]2O : 0.71
COCCOC(=O)N1C(=O)[C@@]2(c3cc(C#CCNC(N)=O)ccc31)[C@H](c1ccc(O)cc1)N1[C@H](c3ccccc3)[C@H](c3ccccc3)OC(=O)[C@H]1[C@@H]2C(=O)N1CCCCCCC1 : 0.817
CC(CCN1CCc2nc(-c3ccccc3)c(-c3ccccc3)cc2C1)=NOC[C@@H](C)[C@H](OCc1ccccc1)C(C)C : -0.323
O=C1[C@H]2[C@H]3[C@H](O)[C@H](O)CC(=NOC[C@@H](O)COCc4ccco4)[C@@H]3CC[C@H]2C(=O)N1c1ccc(F)cc1F : 0.74
CCCNC(=O)[C@@H]1c2ccccc2C(=O)N(c2ccc(C)cn2)[C@H]1c1ccc(CO)cc1 : -0.181
O=C1[C@H]2[C@H]3[C@H](O)[C@H](O)CC(=NOCc4ccccc4)[C@H]3CC[C@H]2C(=O)N1C[C@@H]1CCCO1 : 0.873
C=CC[C@@H]1C=C[C@H](ON=C2c3cc(OC)ccc3O[C@H](c3cccc(OC)c3)[C@H]2O)[C@@H](CO)O1 : 0.194
C=C(/C(=C/C[C@H](OC(=O)c1ccncc1)c1ccc(OCCO)cc1)c1cnc2ccccc2c1)C(C)C : 1.06

---

Target: Focal adhesion kinase 1 (Homo sapiens)
Test: small-molecule microarray binders of FAK, primary screen, biochemical, 635/667 nm fluorescence, BSA, DTT (AID 1130);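 further: composite of spot emission at 667 nm and signal to noise over triplicate slides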
Details: PTK2 binding, 635 nm fluorescence, higher = more signal
Measured quantity: composite z-score

C=CCOC(=O)[C@H]1[C@@H]2C(=O)O[C@@H](c3ccccc3)[C@@H](c3ccccc3)N2[C@@H](c2ccc(OCCOC(=O)[C@H]3C[C@H]4C(=O)N[C@@H](Cc5ccccc5)C(=O)N4[C@H]3c3ccc(O)cc3)cc2)[C@]12C(=O)Nc1ccccc12 : 1.23
COCCNC(=O)OCC1CCCC2(CC(OC(=O)NCCc3ccc(F)cc3)CC(CCC(=O)N[C@@H](C)C(=O)OC)O2)O1 (some centres undefined) : 0.104
CC(C)=CCCC(C)=CCON=C1C[C@@H](O)[C@@H](O)[C@@H]2[C@@H]3C(=O)N(C[C@@H]4CCCO4)C(=O)[C@@H]3CC[C@@H]12 : 0.121
COC(=O)[C@H](C)NC(=O)CCC1CC(OC(=O)NCc2cccc3ccccc23)CC2(CCCC(COC(=O)NCCc3ccc(Cl)cc3)O2)O1 (some centres undefined) : 0.178
CCOC(=O)CCN1C(=O)[C@H]2[C@H]3[C@H](O)C=CC(=O)[C@@H]3CC[C@H]2C1=O : 0.122
C#CCCCON=C1C[C@@H](O)[C@@H](O)[C@@H]2[C@@H]3C(=O)N(CCC(=O)OCC)C(=O)[C@@H]3CC[C@@H]12 : 0.934
CCCCCN1CC=CC23O[C@@H]4C=CCOC(=O)[C@@H]4[C@H]2C(=O)N(C(CO)C(C)C)[C@@H]3C1=O (some centres undefined) : -0.565
CC(CCN1CCCCc2nc(C)c(C)cc21)=NOC(C)CN1CCCCc2nc(C)c(C)cc21 (centres undefined) : 0.332
CC(C)(C)N1C(=O)[C@H]2[C@H]3[C@H](O)[C@H](O)CC(=NO[C@@H]4O[C@H](CO)[C@@H](O)[C@H](O)[C@H]4O)[C@@H]3CC[C@H]2C1=O : 1.04
COc1ccccc1CN1C(=O)c2ccccc2[C@@H](C(=O)NCC(F)(F)F)[C@@H]1c1ccc(CO)cc1 : 0.391
CO[C@@H]1COC(=O)CC=C[C@@H](C)COC(=O)[C@H](COCc2ccccc2)NC(=O)CC=C[C@H]1C : -0.765
CC(=O)OC[C@H]1O[C@H](CC=NOC[C@@H](C)[C@H](OCc2ccccc2)C(C)C)C=C[C@@H]1OC(C)=O : -0.351
COc1ccc(O[C@H]2C=C[C@@H](c3ccccc3)O[C@@H]2COC(=O)CCC(C)=NO[C@H](C)c2cn([C@@H]3COC[C@H]3O)nn2)cc1 : 0.149
CCCNC(=O)OC[C@H]1O[C@H](CCON=CC[C@@H]2C=C[C@H](OC(C)=O)[C@@H](COC(C)=O)O2)C=C[C@@H]1Oc1ccc(OC)cc1 : 0.474
CO[C@H]1COC(=O)[C@H](C)NC(=O)[C@@H](C)COC(=O)CC=C[C@@H]1C : -0.274
O=C1[C@H]2[C@H]3[C@H](O)[C@H](O)CC(=NO[C@@H]4O[C@H](CO)[C@@H](O)[C@H](O)[C@H]4O)[C@@H]3CC[C@H]2C(=O)N1Cc1ccccc1 : 0.593
CO[C@@H]1COC(=O)[C@H](C)NC(=O)[C@@H](C)COC(=O)CCC[C@H]1C : 0.574
CCN1C(=O)[C@H]2[C@H]3[C@H](O)[C@H](O)CC(=NO[C@@H]4O[C@H](CO)[C@@H](O)[C@H](O)[C@H]4O)[C@@H]3CC[C@H]2C1=O : -0.41
Cc1ccc(S[C@]2(C(=O)NCC(F)(F)F)CC(=O)N(Cc3ccccc3Cl)[C@@H]2c2ccc(CO)cc2I)cc1 : 0.395
COCCOC(=O)N1C(=O)[C@@]2(c3cc(C#Cc4ccc(OC)cc4)ccc31)[C@H](c1ccc(O)cc1)N1[C@H](c3ccccc3)[C@H](c3ccccc3)OC(=O)[C@H]1[C@@H]2C(N)=O : 0.126
COc1ccc(O[C@H]2C=C[C@@H](c3ccccc3)O[C@@H]2COC(=O)CCC(C)=NOC[C@@H](C)[C@H](OCc2ccccc2)C(C)C)cc1 : -0.592
C[C@@H]1CC[C@H]2C(=O)O[C@H](COc3ccc(C(C)(C)C)cc3)CN2[C@H]1c1ccc(Br)cc1 : -0.0482
CO[C@H]1COC(=O)[C@@H]2CCCN2C(=O)[C@@H](C)COC(=O)CC=C[C@@H]1C : -0.114
C=CC[C@@H]1C=C[C@H](ON=C[C@@H](OC)[C@H](C)C=CCC(=O)OC)[C@@H](CO)O1 : 0.191
COc1ccc(-c2ccc3c(n2)CCCN3CC(O)CN2CCCc3nc(C)c(C)cc32)cc1 (centres undefined) : 0.351
NCCCCCNC(=O)[C@@H]1C[C@@H]2C(=O)N3CCC[C@H]3C(=O)N2[C@@H]1c1cccc(OCCO)c1 : 1.13
O=C1[C@H]2[C@H]3[C@H](O)[C@H](O)CC(=NO[C@@H]4O[C@H](CO)[C@@H](O)[C@H](O)[C@H]4O)[C@H]3CC[C@H]2C(=O)N1Cc1ccccc1 : 0.0406
O=C1CCCC=C1C(O)CCOCc1ccccc1 (centres undefined) : -0.0626
CO[C@H]1COC(=O)[C@@H]2CCCN2C(=O)CC=C[C@@H](C)[C@H](OC)COC(=O)CC=C[C@@H]1C : -0.0405
